Below, each entry is listed alongside its reported Potency.
target.or.test.system: Tyrosine-protein kinase Yes (Homo sapiens) (UniProt P07947)
Sequence (P07947 whole entry, looked up): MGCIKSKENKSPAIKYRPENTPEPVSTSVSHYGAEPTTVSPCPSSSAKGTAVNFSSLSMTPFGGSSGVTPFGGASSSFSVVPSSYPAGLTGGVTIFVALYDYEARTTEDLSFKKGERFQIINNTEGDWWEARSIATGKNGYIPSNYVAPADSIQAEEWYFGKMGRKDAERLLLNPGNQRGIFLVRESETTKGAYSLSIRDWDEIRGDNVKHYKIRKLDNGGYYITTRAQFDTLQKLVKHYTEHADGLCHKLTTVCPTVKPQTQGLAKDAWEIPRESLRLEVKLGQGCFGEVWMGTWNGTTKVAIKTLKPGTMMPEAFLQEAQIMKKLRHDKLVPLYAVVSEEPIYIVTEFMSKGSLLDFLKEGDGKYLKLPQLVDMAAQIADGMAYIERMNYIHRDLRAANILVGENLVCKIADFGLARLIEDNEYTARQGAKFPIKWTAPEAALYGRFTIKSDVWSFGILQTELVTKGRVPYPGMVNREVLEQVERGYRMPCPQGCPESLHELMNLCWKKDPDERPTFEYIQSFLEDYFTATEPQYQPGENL
protocol.notes: qHTS for small molecule inhibitors of Yes1 kinase: Primary Screen (AID 686947); note: potency is the fitted concentration of half-maximal effect; nearly all actives have a fitted effect of over 60% in size
assay.setup: Yes1 kinase biochemical qHTS inhibition; series mostly up to 76.9 µM
Inconclusive results are not listed. The source made the active and inactive calls. Calls come from the whole dose curve; as a rule, active = well fitted inhibition curve with a large enough effect; inconclusive = small, poorly fitted or top-dose-only effect; inactive = no such curve, though single readings can be large or run the other way.

| smiles.str | Potency |
| --- | --- |
| NS(=O)(=O)c1cccc(N=Cc2c(O)[nH]c3ccccc23)c1 | 10400 nM (active) |
| COc1ccc(-c2oc3ncnc(N)c3c2-c2ccc(NC(=O)Nc3cc(C(F)(F)F)ccc3F)cc2)cc1 | 1040 nM (active) |
| O=Nc1c(-c2c(O)[nH]c3ccccc23)[nH]c2ccccc12 | 772 nM (active) |
